Target: RAT 5-LIPOXYGENASE (Rattus norvegicus)
Construct: A suspension of rat neutrophils in buffer; endogenous in cells
Sequence (P12527 1-673): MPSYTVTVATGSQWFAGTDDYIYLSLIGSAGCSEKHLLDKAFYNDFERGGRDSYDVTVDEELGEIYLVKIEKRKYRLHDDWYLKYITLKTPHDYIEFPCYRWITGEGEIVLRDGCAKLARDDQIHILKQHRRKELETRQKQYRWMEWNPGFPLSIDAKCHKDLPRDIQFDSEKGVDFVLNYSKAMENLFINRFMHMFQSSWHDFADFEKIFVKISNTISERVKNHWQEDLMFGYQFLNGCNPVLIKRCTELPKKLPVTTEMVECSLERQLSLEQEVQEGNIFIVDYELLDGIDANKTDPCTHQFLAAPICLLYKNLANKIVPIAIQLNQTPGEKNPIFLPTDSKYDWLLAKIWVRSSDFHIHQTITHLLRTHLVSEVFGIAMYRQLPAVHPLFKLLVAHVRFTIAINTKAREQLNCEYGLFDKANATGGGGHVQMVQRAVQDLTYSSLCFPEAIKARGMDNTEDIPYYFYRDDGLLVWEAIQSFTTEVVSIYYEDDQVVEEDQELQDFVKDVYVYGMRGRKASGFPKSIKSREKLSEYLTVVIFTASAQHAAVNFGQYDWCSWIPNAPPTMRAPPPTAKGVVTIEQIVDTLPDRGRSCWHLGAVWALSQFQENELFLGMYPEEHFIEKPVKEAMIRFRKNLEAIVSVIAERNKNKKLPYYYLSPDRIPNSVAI
Assay: Biosynthesis of 5-HETE by rat polymorphonuclear leukocytes in vitro (inhibition of rat 5-lipoxygenase)
Conditions: rat neutrophils, A23187, 3 minutes at 30° C.; concentration at which 50% inhibition is observed; read-out: INHIBITION OF RAT 5-LIPOXYGENASE, I50
measured-parameter: IC50 (µM)
Numeric answer only, unit µM assumed.

**Query** Query the reported IC50 for RAT 5-LIPOXYGENASE (Rattus norvegicus); item: C=CCOc1ccc(CC(=O)NCC(O)c2ccccc2)cc1Cl (stereo not shown)
**Result** 20

**Query** Query the reported IC50 for RAT 5-LIPOXYGENASE (Rattus norvegicus); item: CN(CC(O)c1ccccc1)C(=O)Cc1ccc(OCCc2ccccc2)c(Cl)c1 (stereo not shown)
**Result** 3

**Query** Query the reported IC50 for RAT 5-LIPOXYGENASE (Rattus norvegicus); item: CN(CCc1ccccc1)C(=O)Cc1ccc(OCc2ccccc2)c(Cl)c1
**Result** 4.2

**Query** Query the reported IC50 for RAT 5-LIPOXYGENASE (Rattus norvegicus); item: COC(=O)[C@@H](Cc1c[nH]c2ccccc12)NC(=O)Cc1ccc(OCc2ccccc2)c(Cl)c1
**Result** 5.4

* * *

target: HUMAN 5 LIPOXYGENASE (Homo sapiens, UniProt P09917); construct: A suspension of human neutrophils in buffer; endogenous in cells; host or cells: human neutrophils (PMNs) from venous blood of healthy volunteers; experiment: Biosynthesis of 5-HETE by human polymorphonuclear leukocytes in vitro (inhibition of human 5-lipoxygenase); type: cell-based; details: human neutrophils, A23187, 3 minutes at 30° C.; concentration at which 50% inhibition is observed; read-out: INHIBITION OF HUMAN 5 LIPOXYGENASE, I50
Sequence (P09917 whole entry): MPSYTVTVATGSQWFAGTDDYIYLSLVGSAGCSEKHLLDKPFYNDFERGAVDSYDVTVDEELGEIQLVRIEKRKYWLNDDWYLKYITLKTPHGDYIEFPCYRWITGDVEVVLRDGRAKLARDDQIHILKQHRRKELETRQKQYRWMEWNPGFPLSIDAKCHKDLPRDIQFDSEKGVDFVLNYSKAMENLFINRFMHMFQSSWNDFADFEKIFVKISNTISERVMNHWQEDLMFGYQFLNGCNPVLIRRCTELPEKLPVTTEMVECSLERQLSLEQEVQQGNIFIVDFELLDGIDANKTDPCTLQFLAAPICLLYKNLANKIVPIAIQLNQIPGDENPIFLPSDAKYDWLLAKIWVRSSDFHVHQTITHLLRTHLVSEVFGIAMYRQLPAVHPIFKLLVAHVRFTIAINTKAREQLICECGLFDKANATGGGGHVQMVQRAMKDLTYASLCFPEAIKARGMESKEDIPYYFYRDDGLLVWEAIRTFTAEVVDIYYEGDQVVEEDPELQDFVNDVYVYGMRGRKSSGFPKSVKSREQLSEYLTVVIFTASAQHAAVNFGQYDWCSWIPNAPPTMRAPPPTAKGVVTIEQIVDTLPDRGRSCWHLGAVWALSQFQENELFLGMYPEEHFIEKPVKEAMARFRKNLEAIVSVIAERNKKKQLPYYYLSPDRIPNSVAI
measured-parameter: pIC50
Keep it numeric: pIC50 is minus log10 of the concentration in mol/L.

**Query** What value of measured pIC50 is listed for CN(CCc1ccccc1)C(=O)Cc1ccc(OCCc2ccccc2)c(Cl)c1 ?
**Result** 5.10

**Query** What value of measured pIC50 is listed for COC(=O)[C@@H](Cc1ccccc1)NC(=O)Cc1ccc(OCCc2ccccc2)c(Cl)c1 ?
**Result** 5.15

**Query** What value of measured pIC50 is listed for CN(CCc1ccccc1)C(=O)Cc1ccc(OCc2ccccc2)c(Cl)c1 ?
**Result** 5.70

**Query** What value of measured pIC50 is listed for COC(=O)[C@@H](Cc1ccccc1)NC(=O)Cc1ccc(OCC2CC2)c(Cl)c1 ?
**Result** 4.30

**Query** What value of measured pIC50 is listed for CN(CC(O)c1ccccc1)C(=O)Cc1ccc(OCCc2ccccc2)c(Cl)c1 (stereo not shown) ?
**Result** 5.00

**Query** What value of measured pIC50 is listed for C#CCOc1ccc(CC(=O)N[C@H](Cc2ccccc2)C(=O)OC)cc1Cl ?
**Result** 5.82

**Query** What value of measured pIC50 is listed for CCCOc1ccc(CC(=O)N[C@H](Cc2ccccc2)C(=O)OC)cc1Cl ?
**Result** 5.22

**Query** What value of measured pIC50 is listed for COC(=O)[C@@H](Cc1c[nH]c2ccccc12)NC(=O)Cc1ccc(OCc2ccccc2)c(Cl)c1 ?
**Result** 4.85

**Query** What value of measured pIC50 is listed for C=CCOc1ccc(CC(=O)N(C)CCc2ccccc2)cc1Cl ?
**Result** 5.70

**Query** What value of measured pIC50 is listed for COC(=O)[C@@H](Cc1ccccc1)NC(=O)Cc1ccc(OCc2ccccc2)c(Cl)c1 ?
**Result** 6.22

* * *

biological target: RAT 5-LIPOXYGENASE (Rattus norvegicus); construct: A suspension of rat neutrophils in buffer; endogenous in cells; host or cells: rat neutrophils (polymorphonuclear leukocytes); assay: Biosynthesis of 5-HETE by rat polymorphonuclear leukocytes in vitro (inhibition of rat 5-lipoxygenase); format: cell-based; conditions: rat neutrophils, 10 μM, A23187, 3 minutes at 30° C.
Kindly return yes if reported inhibition at 10 µM is no lower than 30%; return no if it is lower.

**Query** Determine whether measured inhibition at 10 µM meets or exceeds 30% for C=CCOc1ccc(CC(=O)N[C@@H](Cc2ccccc2)C(=O)OC)cc1Cl
**Result** no

**Query** Determine whether measured inhibition at 10 µM meets or exceeds 30% for C=CCOc1ccc(CC(=O)N(CCO)Cc2ccccc2)cc1Cl
**Result** yes

**Query** Determine whether measured inhibition at 10 µM meets or exceeds 30% for COC(=O)[C@H](Cc1ccccc1)NC(=O)c1ccc(OC2C=CCCC2)cc1 (stereo partly drawn)
**Result** yes

**Query** Determine whether measured inhibition at 10 µM meets or exceeds 30% for C=CCOc1ccc(C(=O)N[C@@H](Cc2ccccc2)C(=O)OC)cc1Cl
**Result** yes

**Query** Determine whether measured inhibition at 10 µM meets or exceeds 30% for COc1ccc(CC(=O)N(C)CCc2ccccc2)cc1Cl
**Result** yes

**Query** Determine whether measured inhibition at 10 µM meets or exceeds 30% for COC(=O)[C@H](Cc1ccccc1)NC(=O)Cc1ccc(OCc2ccccc2)cc1
**Result** no

**Query** Determine whether measured inhibition at 10 µM meets or exceeds 30% for C=CCOc1ccc(CC(=O)NCC(C)c2ccccc2)cc1Cl (stereo not drawn)
**Result** no

**Query** Determine whether measured inhibition at 10 µM meets or exceeds 30% for O=C(Cc1ccc(OCc2ccccc2)c(Cl)c1)N[C@H](Cc1ccccc1)C(=O)O
**Result** yes

**Query** Determine whether measured inhibition at 10 µM meets or exceeds 30% for C=CCOc1ccc(CC(=O)NC(Cc2ccc(Cl)cc2)C(=O)OC)cc1Cl (racemic)
**Result** no

**Query** Determine whether measured inhibition at 10 µM meets or exceeds 30% for C=CCOc1ccc(CC(=O)N[C@H](CO)Cc2ccccc2)cc1Cl
**Result** yes

**Query** Determine whether measured inhibition at 10 µM meets or exceeds 30% for COC(=O)[C@@H](Cc1ccccc1)NC(=O)Cc1ccc(OCc2ccc3ccccc3n2)c(Cl)c1
**Result** yes

**Query** Determine whether measured inhibition at 10 µM meets or exceeds 30% for C=CCOc1ccc(CC(=O)NC(CO)C(O)c2ccccc2)cc1Cl (stereo not drawn)
**Result** yes

* * *

Target: RAT 5-LIPOXYGENASE (Rattus norvegicus, UniProt P12527)
Construct: A suspension of rat neutrophils in buffer; endogenous in cells
Experiment: Biosynthesis of 5-HETE by rat polymorphonuclear leukocytes in vitro (inhibition of rat 5-lipoxygenase)
Details: rat neutrophils, A23187, 3 minutes at 30° C.; concentration at which 50% inhibition is observed; read-out: INHIBITION OF RAT 5-LIPOXYGENASE, I50
Description: Protocol for the Biosynthesis of 5-HETE by Rat Polymorphonuclear Leukocytes In Vitro A suspension of rat neutrophils in buffer is incubated for 3 minutes at 30° C. with [^14 C]-arachidonic acid (AA) and calcium ionophore A23187. […] After adjusting for the extraction efficiency, the amount (pmole) of [^14 C]-5-HETE in each of the tubes is quantitated. […] The ability of the test compounds to modulate the activity of this enzyme is determined by a decrease or increase in the net amount of 5-HETE produced. […]
Give pIC50 for every item shown.
Keep it numeric: pIC50 is minus log10 of the concentration in mol/L.

**Query** What value of measured pIC50 is listed for COC(=O)[C@@H](Cc1ccccc1)NC(=O)Cc1ccc(OC(C)C)c(Cl)c1 ?
**Result** 5.70

**Query** What value of measured pIC50 is listed for COC(=O)[C@@H](Cc1ccccc1)N(C)C(=O)Cc1ccc(OCCc2ccccc2)c(Cl)c1 ?
**Result** 5.30

**Query** What value of measured pIC50 is listed for C=CCOc1ccc(CC(=O)N(C)[C@H](C)[C@@H](O)c2ccccc2)cc1Cl ?
**Result** 4.82

**Query** What value of measured pIC50 is listed for COC(=O)[C@@H](Cc1ccccc1)NC(=O)Cc1ccc(OCc2ccccc2)c(Cl)c1 ?
**Result** 6.60

**Query** What value of measured pIC50 is listed for C=CCOc1ccc(CC(=O)N[C@H](Cc2ccccc2)C(=O)OC)cc1Cl ?
**Result** 6.15

**Query** What value of measured pIC50 is listed for COC(=O)[C@@H](Cc1ccccc1)NC(=O)Cc1ccc(OCC2CC2)c(Cl)c1 ?
**Result** 6.00

**Query** What value of measured pIC50 is listed for CCCOc1ccc(CC(=O)N[C@H](Cc2ccccc2)C(=O)OC)cc1Cl ?
**Result** 6.10

**Query** What value of measured pIC50 is listed for C=CCOc1ccc(CC(=O)N(C)[C@@H](C)[C@H](O)c2ccccc2)cc1Cl ?
**Result** 4.52

**Query** What value of measured pIC50 is listed for COC(=O)[C@@H](Cc1ccccc1)NC(=O)Cc1ccc(OCCc2ccccc2)c(Cl)c1 ?
**Result** 6.15

**Query** What value of measured pIC50 is listed for COC(=O)[C@@H](Cc1ccccc1)NC(=O)Cc1ccc(OC)c(Cl)c1 ?
**Result** 5.42
